target: human SSTR3 (Homo sapiens (Human)); assay: SSTR3 functional antagonist assay (cAMP, FSK + SS-14, CHO cells); conditions: 3.5 μM FSK + 100 nM SS-14; more active isomer
pEC50: −log10 of the molar value.
Record criterion met whenever pEC50 is at 9 or higher; record criterion not met when lower.

COMPOUND | ASSIGNED_CATEGORY
CCOCC1(c2nnc(C(C)(C)C)o2)N[C@@H](c2nc(-c3ccc(F)cn3)c[nH]2)Cc2c1[nH]c1ccccc21 (stereo partly drawn) | criterion not met

Next:
Inquiry: Entry COCCOCC1(c2nnc(C3CCOCC3)o2)N[C@@H](c2nc(-c3ccc(F)c(C)n3)c[nH]2)Cc2c1[nH]c1ccccc21 (stereo partly drawn) : is its pEC50 no less than 9?
Reply text: criterion met

###

molecular target: human SSTR3 (Homo sapiens (Human))
pKi: −log10 of the molar value.
Record yes whenever pKi is at 9 or higher; record no when lower.

Worked examples follow.
MOLECULE | ASSIGNED_CATEGORY
CCOCC1(c2nnc(CCOC)o2)N[C@@H](c2nc(-c3ccc(F)cn3)c[nH]2)Cc2c1[nH]c1ccccc21 (stereo partly drawn) | no
CCOCC1(c2nnc(C(C)C)o2)N[C@@H](c2nc(-c3ccc(F)c(C)n3)c[nH]2)Cc2c1[nH]c1ccccc21 (stereo partly drawn) | yes

Inquiry: Entry CCOCC1(c2nnc(C(C)C)o2)N[C@@H](c2nc(-c3ccc(F)cn3)c[nH]2)Cc2c1[nH]c1ccccc21 (stereo partly drawn) : is its pKi no less than 9?
Reply text: no

###

Biological target: human SSTR3 (Homo sapiens (Human), UniProt P32745)
Sequence (P32745 whole entry): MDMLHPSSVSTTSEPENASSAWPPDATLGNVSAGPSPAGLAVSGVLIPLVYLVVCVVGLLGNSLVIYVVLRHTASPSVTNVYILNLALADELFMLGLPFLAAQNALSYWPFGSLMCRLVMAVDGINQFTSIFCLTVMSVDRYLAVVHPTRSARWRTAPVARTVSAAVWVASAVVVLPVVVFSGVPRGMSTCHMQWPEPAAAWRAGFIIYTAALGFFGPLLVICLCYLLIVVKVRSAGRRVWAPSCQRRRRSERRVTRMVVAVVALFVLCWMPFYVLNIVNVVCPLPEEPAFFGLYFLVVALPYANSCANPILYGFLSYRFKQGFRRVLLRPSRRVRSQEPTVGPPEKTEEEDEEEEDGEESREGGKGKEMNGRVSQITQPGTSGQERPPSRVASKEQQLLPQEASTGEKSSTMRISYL
Experiment: SSTR3 functional antagonist assay (cAMP, FSK + SS-14, CHO cells)
Conditions: 3.5 μM FSK + 100 nM SS-14; more active isomer
Protocol: The effects of compounds that bind to human and murine SSTR3 with various affinities on the functional activity of the receptor were assessed by measuring cAMP production in the presence of Forskolin (FSK) along or FSK plus SS-14 in SSTR3 expressing CHO cells. […]
Threshold-based label: EC50 under 1 nM gives T, EC50 not under 1 nM gives F.

MOLECULE | ASSIGNED_CATEGORY
Cc1nnc(C2(C3CCCO3)N[C@@H](c3nc(-c4ccc(F)c(C)n4)c[nH]3)Cc3c2[nH]c2ccccc32)o1 (some centres unmarked) | F
[2H]C([2H])([2H])COCC1(c2nnc(C)o2)N[C@@H](c2nc(-c3ccc(F)c(C)n3)c[nH]2)Cc2c1[nH]c1ccccc21 (some centres unmarked) | F
COCCOCC1(c2nnc(C(C)(C)C)o2)N[C@@H](c2nc(-c3ccc(F)cn3)c[nH]2)Cc2c1[nH]c1ccccc21 (some centres unmarked) | F

Inquiry: Quick check: EC50 of Cc1nc(-c2c[nH]c([C@H]3Cc4c([nH]c5ccccc45)C(c4nnc(C(C)C)o4)(C4CCOCC4)N3)n2)ccc1F (some centres unmarked) under 1 nM?
Reply text: T

###

target: UniProt:Q12809
Sequence (Q12809 whole entry): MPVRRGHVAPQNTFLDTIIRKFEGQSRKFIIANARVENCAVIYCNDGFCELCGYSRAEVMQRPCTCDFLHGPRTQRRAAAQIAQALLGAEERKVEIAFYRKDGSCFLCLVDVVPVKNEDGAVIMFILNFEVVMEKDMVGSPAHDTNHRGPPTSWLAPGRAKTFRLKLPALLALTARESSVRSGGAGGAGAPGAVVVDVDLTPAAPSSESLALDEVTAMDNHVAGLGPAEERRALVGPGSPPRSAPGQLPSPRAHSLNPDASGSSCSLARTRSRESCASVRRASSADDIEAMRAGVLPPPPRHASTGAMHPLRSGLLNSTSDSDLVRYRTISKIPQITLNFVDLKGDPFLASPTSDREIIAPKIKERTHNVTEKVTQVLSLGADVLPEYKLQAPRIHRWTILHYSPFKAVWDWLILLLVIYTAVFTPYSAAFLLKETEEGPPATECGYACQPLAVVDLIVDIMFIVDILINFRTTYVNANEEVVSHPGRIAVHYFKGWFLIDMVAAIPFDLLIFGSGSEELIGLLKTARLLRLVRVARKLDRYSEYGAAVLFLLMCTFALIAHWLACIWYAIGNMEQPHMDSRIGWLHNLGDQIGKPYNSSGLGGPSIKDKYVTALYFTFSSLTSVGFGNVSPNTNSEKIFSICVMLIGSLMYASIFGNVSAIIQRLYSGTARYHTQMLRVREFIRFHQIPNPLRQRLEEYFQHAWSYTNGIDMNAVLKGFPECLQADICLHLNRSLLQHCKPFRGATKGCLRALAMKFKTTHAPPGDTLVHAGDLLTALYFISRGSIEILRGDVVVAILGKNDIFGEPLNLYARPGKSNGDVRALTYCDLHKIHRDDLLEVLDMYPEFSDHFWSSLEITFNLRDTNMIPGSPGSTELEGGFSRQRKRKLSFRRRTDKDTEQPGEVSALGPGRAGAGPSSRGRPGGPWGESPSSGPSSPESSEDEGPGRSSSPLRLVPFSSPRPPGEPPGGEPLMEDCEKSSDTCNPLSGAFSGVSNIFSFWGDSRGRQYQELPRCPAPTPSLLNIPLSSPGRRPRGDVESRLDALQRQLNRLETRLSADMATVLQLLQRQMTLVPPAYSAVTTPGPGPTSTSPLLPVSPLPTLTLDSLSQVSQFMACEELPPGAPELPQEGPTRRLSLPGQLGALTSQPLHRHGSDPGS
The following compounds are shown together with reported IC50 values.
Write down the numeric answer in µM and omit the unit.

COMPOUND | IC50 (µM)
COCCOCC1(c2nnc(C3CCOCC3)o2)N[C@@H](c2nc(-c3ccc(F)cn3)c[nH]2)Cc2c1[nH]c1ccccc21 (stereo partly drawn) | 23.4
CCOCC1(c2nnc(C3(C)CCCO3)o2)N[C@@H](c2nc(-c3ccc(F)c(C)n3)c[nH]2)Cc2c1[nH]c1ccccc21 (stereo partly drawn) | 19.2
CCOCC1(c2nnc(C(C)C)o2)N[C@@H](c2nc(-c3ccc(F)c(C)n3)c[nH]2)Cc2c1[nH]c1ccccc21 (stereo partly drawn) | 18.6
Cc1nc(-c2c[nH]c([C@H]3Cc4c([nH]c5ccccc45)C(c4nnc(C(C)C)o4)(C4CCOCC4)N3)n2)ccc1F (stereo partly drawn) | 16

Inquiry: # IC50 lookup, item COCCOCC1(c2nnc(C3CCOCC3)o2)N[C@@H](c2nc(-c3ccc(F)c(C)n3)c[nH]2)Cc2c1[nH]c1ccccc21 (stereo partly drawn)
Reply text: 19.6

Inquiry: Same read-out for COCCOCC1(c2nnc(C(C)C)o2)N[C@@H](c2nc(-c3ccc(F)c(C)n3)c[nH]2)Cc2c1[nH]c1ccccc21 (stereo partly drawn) ?
Reply text: 19.2

Inquiry: Same read-out for Cc1nnc(C2(C3CCCCO3)N[C@@H](c3nc(-c4ccc(F)c(C)n4)c[nH]3)Cc3c2[nH]c2ccccc32)o1 (stereo partly drawn) ?
Reply text: 14.6

Inquiry: Same read-out for COCCOCC1(c2nnc(C)o2)N[C@@H](c2nc(-c3ccc(F)c(C)n3)c[nH]2)Cc2c1[nH]c1ccccc21 (stereo partly drawn) ?
Reply text: 27.7
